protocol: Quantitative High-Throughput drug screen in 47 multiple myeloma cell lines against the NCATS MIPE library collection: RPMI8226_ATCC cell viability assay (AID 1919871); note: nearly all actives have a fitted effect of over 30% in size
measurement parameters: RPMI8226 myeloma viability, CellTiter-Glo ATP luminescence, 48 h; series mostly up to 45.8 µM
Inconclusive results are not listed. Active and inactive are the calls of the source. Calls come from the whole dose curve; as a rule, active = well fitted cell-killing curve with a large enough effect; inconclusive = small, poorly fitted or top-dose-only effect, or effect the other way; inactive = no such curve, though single readings can be large or run the other way.
Mark one answer only. Choices: active, inactive

Ask | Which outcome was entered for the molecule `CCCOc1ccc(C(=O)OCCN(CC)CC)cc1N` in this test?
Reply | inactive

Ask | Which outcome was entered for the molecule `O=C(O)c1cn(C2CC2)c2cc(N3CCNCC3)c(F)cc2c1=O` in this test?
Reply | inactive

Ask | Which outcome was entered for the molecule O=C(NCC1CN(c2ccc(N3CCOCC3=O)cc2)C(=O)O1)c1ccc(Cl)s1 (centres undefined) in this test?
Reply | inactive

Ask | Which outcome was entered for the molecule `CC1=NN(c2ccccc2)C(=O)C1` in this test?
Reply | inactive

Ask | Which outcome was entered for the molecule `COc1cc(NCc2ccc3nc(N)nc(N)c3c2C)cc(OC)c1OC` in this test?
Reply | active

Ask | Which outcome was entered for the molecule `CC(C)(C)NC(=O)[C@H]1CC[C@H]2[C@@H]3CC[C@H]4NC(=O)C=C[C@]4(C)[C@H]3CC[C@]12C` in this test?
Reply | inactive

Ask | Which outcome was entered for the molecule `CCCc1nc(C)c2c(=O)[nH]c(-c3cc(S(=O)(=O)N4CCN(CC)CC4)ccc3OCC)nn12` in this test?
Reply | active

Ask | Which outcome was entered for the molecule `COc1cnc(NS(=O)(=O)c2ccc(N)cc2)nc1` in this test?
Reply | inactive

Ask | Which outcome was entered for the molecule `S=P(N1CC1)(N1CC1)N1CC1` in this test?
Reply | inactive

Ask | Which outcome was entered for the molecule `CCc1cc(C(N)=S)ccn1` in this test?
Reply | inactive

Ask | Which outcome was entered for the molecule `CCCN[C@H]1CCc2nc(N)sc2C1` in this test?
Reply | inactive

Ask | Which outcome was entered for the molecule `CCn1cc(C(=O)O)c(=O)c2cc(F)c(N3CCNCC3)nc21` in this test?
Reply | inactive

Ask | Which outcome was entered for the molecule `NC(=O)c1cccc(N)c1` in this test?
Reply | inactive

Ask | Which outcome was entered for the molecule `COc1ncnc(NS(=O)(=O)c2ccc(N)cc2)c1OC` in this test?
Reply | inactive
